- Target: Scribble PDZ1 Q808H (human, UniProt Q14160 728-815, Q808H)
- Sequence (Q14160 728-815 Q808H): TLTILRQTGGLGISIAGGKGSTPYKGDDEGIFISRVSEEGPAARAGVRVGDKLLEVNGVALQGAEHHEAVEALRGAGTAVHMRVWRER
- Method: ITC
Endpoint: Kd (nM)

binder="RSWFETWV [superpeptide (synthetic pan-PDZ binding peptide)]" units=nM val=2730
